So I've got a bunch of variants here, and I need their self-cleavage values.
B1: Hairpin Ribozyme (parent)
chain: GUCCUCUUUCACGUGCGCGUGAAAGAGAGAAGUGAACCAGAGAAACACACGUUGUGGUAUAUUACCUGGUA

# Variants of: B1
# TEST_METHOD_NOTES: self-cleavage, relative activity (ratio to wild type); higher = more cleavage; co-transcriptional

Task: Value lookup for self-cleavage; key = G17A U63C
Result: 0.181

Task: Check A35U C66A too.
Result: 0.154

Task: Check G51A G68U too.
Result: 0.474

Task: Check U63G G69C too.
Result: 0.138

Task: Check G13U A44G too.
Result: 0.199

Task: Check C6A G17A too.
Result: 0.663

Task: Check G27U U58A too.
Result: 0.153

Task: Check G13A A71G too.
Result: 0.912

Task: Check G21U G27U too.
Result: 0.253

Task: Check U9C C46U too.
Result: 0.0512

Task: Check G42U U70A too.
Result: 0.233

Task: Check A44C A64G too.
Result: 0.141

Task: Check G54A A61G too.
Result: 0.397

Task: Check C18U U52A too.
Result: 1.09

Task: Check C18A U33C too.
Result: 0.132

Task: Check G13U U62A too.
Result: 0.179

Task: Check C10U U63C too.
Result: 0.102

Task: Check U55G U63C too.
Result: 0.0583

Task: Check G56U U67C too.
Result: 0.111

Task: Check U14A A71U too.
Result: 0.645

Task: Check A39U A45U too.
Result: 0.142

Task: Check A47C U62G too.
Result: 0.227
